As shown below, each of these molecules has a reported TGI value.
- System: SK-OV-3 ovarian
- protocolNotes: NCI tumour cell line growth inhibition, 48 h
readoutLabel: TGI

INSERT INTO results (molecule, recordedvalue) VALUES
  ('c1cc2c(cc1C1=NCCN1)c1cc(C3=NCCN3)ccc1n2CC1CCCCC1', '81.8 µM'),
  ('O=C(/C=C/c1ccco1)c1ccc(Nc2nc(Nc3ccc(F)cc3)nc(Nc3ccc(F)cc3)n2)cc1', '> 100 µM'),
  ('C=C(C)[C@@H]1CC[C@]2(CO)CC[C@]3(C)[C@H](CC[C@@H]4[C@@]5(C)CC[C@H](NCO)C(C)(C)[C@@H]5CC[C@]43C)[C@@H]12', '1.61 µM'),
  ('FC(F)(F)c1ccc2nc(Sc3ccc4ccccc4c3)cnc2c1', '> 100 µM'),
  ('O=C(Nc1ccc2ccccc2c1)c1cc2cc(CCl)ccc2oc1=O', '> 100 µM'),
  ('CC(C)NC(=O)OCc1c(COC(=O)NC(C)C)c(-c2cc[n+](COC(=O)C3CCCCC3)cc2)n2c1CCC2', '> 100 µM'),
  ('CC(C)=NOC(=O)Nc1cccc2c1OCO2', '> 100 µM'),
  ('Nc1nc(N)c2c(n1)NC(c1sc(Cl)nc1Cl)CC(c1ccc3c(c1)OCO3)=N2 (centres undefined)', '9.77 µM'),
  ('CC(C)N1C(C)[C@@H](c2ccccc2)O[P@]1(=O)CC1=CCCCC1 (some centres undefined)', '> 100 µM');

----------
- System: HOP-92 NSCLC
- protocolNotes: NCI tumour cell line growth inhibition, 48 h
As shown below, each of these compounds has a reported TGI value.
readoutLabel: TGI (µM)

INSERT INTO assay_data (compound, experimentaltarget, qual, recordedvalue) VALUES
  ('C=C(C)[C@@H]1CC[C@]2(CO)CC[C@]3(C)[C@H](CC[C@@H]4[C@@]5(C)CC[C@H](NCO)C(C)(C)[C@@H]5CC[C@]43C)[C@@H]12', 'HOP-92 NSCLC', '=', 1.6),
  ('O=S(=O)(O)c1cc(S(=O)(=O)O)c2c(N=Nc3ccc(N=Nc4ccccc4)cc3)c(O)ccc2c1', 'HOP-92 NSCLC', '>', 100),
  ('CCCCCCCCCCCCO[P+](=O)OCCCCCCCCCCCC', 'HOP-92 NSCLC', '>', 100),
  ('Cc1ccc(NC(=O)CC(=O)n2nc(C)c(N=Nc3cccc(C)c3)c2C)cc1', 'HOP-92 NSCLC', '>', 100),
  ('S=c1c2ccccc2c(=S)n2n1CC=CC2', 'HOP-92 NSCLC', '>', 100),
  ('C=C1C(=O)OC2C3OC(C)(CCC(O)C3COC(C)=O)CC(OC(=O)/C(=C/C)COC(C)=O)C12 (stereo not given)', 'HOP-92 NSCLC', '=', 0.392),
  ('Cc1ccccc1NC(=O)Cc1csc(N=Nc2c(O)[nH]c3ccccc23)n1', 'HOP-92 NSCLC', '>', 100),
  ('O=C1C(c2c(O)[nH]c3ccc(S(=O)(=O)NCCO)cc23)=Nc2ccccc21', 'HOP-92 NSCLC', '=', 82.4),
  ('CCOC(=O)Cn1c(=O)c(C)cn(COCCO)c1=O', 'HOP-92 NSCLC', '>', 100),
  ('O=[N+]([O-])/C(C(Cl)=C(Cl)Cl)=C(/Nc1ccccc1)Sc1ccccc1', 'HOP-92 NSCLC', '=', 68.3);

----------
- Test system: OVCAR-4 ovarian
- protocolNotes: NCI tumour cell line growth inhibition, 48 h; in the data active means GI50 below about 0.43 µM; inactive means the rest
Classes used: Yes = active, No = inactive

INSERT INTO measurements (compound, labelvalue) VALUES
  ('O=C(c1ccc2ccccc2c1)c1c(C(F)(F)F)n([O-])c2ccc(F)cc2[n+]1=O', 'No'),
  ('NC(=O)c1ccc(N(C(N)=O)c2c(F)cccc2F)nc1-c1ccc(F)cc1F', 'No'),
  ('CC(=O)[C-](C(C)=O)c1ccccc1.CC(=O)[C-](C(C)=O)c1ccccc1.CC(=O)[C-](C(C)=O)c1ccccc1.[Cl-].[Zr+4]', 'No'),
  ('COc1ccc(C2=NC(c3ccc(Cl)cc3)C(c3ccc(Cl)cc3)N2C(=O)N2CCNC(=O)C2)c(OC(C)C)c1 (stereo unspecified)', 'No'),
  ('COc1cccc(NC2=C(Cl)C(=O)N(Cc3ccc(Cl)cc3)C2=O)c1', 'No'),
  ('CCCN1CCC=C(c2ccc(Nc3nc(Nc4ccccc4C(N)=O)c4cc[nH]c4n3)c(C)c2)C1', 'No'),
  ('Nc1c(C(=O)Nc2cccc3ccccc23)sc2nc3c(cc12)C(=O)CCC3', 'No'),
  ('COc1ccc(-c2nc(C(=O)c3ccccc3)n(CC(=O)c3ccc(Cl)cc3)c2-c2ccc(OC)cc2)cc1', 'No'),
  ('CCOC(=O)c1c(C)n(Cc2ccccc2)c2c1cc1oc(=O)c(=O)n3cnc2c13', 'No'),
  ('COc1ccc2c(c1)/C(=N/OC(C)=O)c1c-2cnc2ccccc12', 'No'),
  ('O=C(/C=C/c1ccc([N+](=O)[O-])cc1)c1cccc(Nc2nc(Nc3ccccc3)nc(Nc3ccccc3)n2)c1', 'No'),
  ('O=C(Nc1cccc(C(F)(F)F)c1)c1cc2ccccc2cc1O', 'No'),
  ('Cc1c2ccncc2c(C)c2c1[nH]c1ccc(Cl)cc12', 'No'),
  ('Cc1cc2nc3c4ccc(Br)cc4n(CCN(C)C)c3nc2cc1C', 'No'),
  ('COc1cc(Cn2c(-c3ccccc3)cc3c2-c2oncc2CC3)cc(OC)c1', 'No'),
  ('C=CC(C)(O)CC/C=C(\CO)C(=O)OC1C(C)OC(O[C@](C)(C=C)CC/C=C(\CO)C(=O)O[C@H]2C[C@@]3(C(=O)OC4OC(CO)C(O)C(O)C4OC4OC(C)C(OC5OC(CO)C(O)C5O)C(OC5OC(CO)C(O)C(O)C5O)C4O)C(CC2(C)C)C2=CCC4[C@@]5(C)CC[C@H](OC6OC(COC7OC(C)C(O)C(O)C7OC7OCC(O)C(O)C7O)C(O)C(O)C6NC(C)=O)C(C)(C)C5CC[C@@]4(C)[C@]2(C)C[C@H]3O)C(O)C1O (stereo partly specified)', 'Yes');

----------
- Tested on: 786-0 renal
- protocolNotes: NCI tumour cell line growth inhibition, 48 h; in the data active = GI50 below about 0.43 µM; inactive = the rest
Where a SMILES comes first, the peptide text is derived from it. The star is where a group is joined. Trt = c1ccc(C(c2ccccc2)(c2ccccc2)*)cc1; Cbz = O=C(OCc1ccccc1)*
Classes used: active, inactive

INSERT INTO results (compound, labelvalue) VALUES
  ('Cn1cc(C2=C(c3cn(CCCCC(=N)N)c4ccccc34)C(=O)NC2=O)c2ccccc21', 'inactive'),
  ('COc1ccc(C(=O)c2cc3c(N)c(C(=O)Nc4cccc(OC)c4)sc3nc2C)cc1', 'inactive'),
  ('COc1ccc(-c2nc(C(=O)c3ccccc3)n(CC(=O)c3ccc(Cl)cc3)c2-c2ccc(OC)cc2)cc1', 'inactive'),
  ('Cc1cc2nc3c4ccc(Br)cc4n(CCN(C)C)c3nc2cc1C', 'inactive'),
  ('O=C(/C=C/c1ccco1)c1ccc(Nc2nc(Nc3ccc(F)cc3)nc(Nc3ccc(F)cc3)n2)cc1', 'inactive'),
  ('Nc1nc(N)c2c(n1)NC(c1sc(Cl)nc1Cl)CC(c1ccc3c(c1)OCO3)=N2 (centres undefined)', 'inactive'),
  ('CCCCCCCCCCSC(=N)N', 'inactive'),
  ('O=C(/C=C/c1ccc([N+](=O)[O-])cc1)c1cccc(Nc2nc(Nc3ccccc3)nc(Nc3ccccc3)n2)c1', 'inactive'),
  ('COc1cccc2c1cc1c3c(cc4c(c32)OCO4)C(=O)N1', 'inactive'),
  ('COc1ccc2c(c1)/C(=N/OC(C)=O)c1c-2cnc2ccccc12', 'inactive'),
  ('Nc1c(C(=O)Nc2cccc3ccccc23)sc2nc3c(cc12)C(=O)CCC3', 'active'),
  ('COC(=O)C(CSC(c1ccccc1)(c1ccccc1)c1ccccc1)NC(=O)C(CC(N)=O)NC(=O)OCc1ccccc1 (stereo not drawn) (Cbz-Asn-Cys(Trt)-OMe; configuration not given here)', 'inactive'),
  ('O=C(Nc1nc2ccccc2s1)c1cc(-c2ccc(F)cc2)n2nc(-c3ccccc3)cc2n1', 'inactive'),
  ('Oc1ccc(Cl)cc1/C=N\NC(=S)N/N=C/c1cc(Cl)ccc1O', 'inactive');

----------
- System: UO-31 renal
- protocolNotes: NCI tumour cell line growth inhibition, 48 h
readoutLabel: GI50

INSERT INTO assay_data (molecule, recordedvalue) VALUES
  ('Cc1cc2nc(-c3c(F)cccc3Cl)n(Cc3c(F)cccc3Cl)c2cc1C', '13.2 µM'),
  ('[CH3][Sn]1([CH3])[O]CC(COc2cc(Cl)c(Cl)cc2Cl)[O]1 (stereo not drawn)', '71 µM'),
  ('COc1ccc(-c2nc(C(=O)c3ccccc3)n(CC(=O)c3ccc(Cl)cc3)c2-c2ccc(OC)cc2)cc1', '> 100 µM'),
  ('CCN(CC)Cc1cc(Nc2c3ccccc3nc3cc(Cl)ccc23)ccc1O', '1.34 µM'),
  ('CN=C(N)N/N=C(\C)c1ccc2c(c1)Cc1ccccc1-2', '1.43 µM'),
  ('O=C(CCCCCCCCC(=O)N/N=C\c1cc(Cl)ccc1O)N/N=C\c1cc(Cl)ccc1O', '0.152 µM'),
  ('CN(C(=O)CNC(=O)/C=C/c1cccc(Cl)c1)C1CCS(=O)(=O)CC1', '47 µM'),
  ('COc1cccc(NC2=C(Cl)C(=O)N(Cc3ccc(Cl)cc3)C2=O)c1', '7.88 µM'),
  ('CN1CCN(c2ccc3nc(-c4ccc(OCCCCN5CCN(CCCCN6C(=O)c7cccc8cccc(c78)C6=O)CC5)cc4)[nH]c3c2)CC1', '58.4 µM'),
  ('NC(=O)c1ccc(N(C(N)=O)c2c(F)cccc2F)nc1-c1ccc(F)cc1F', '> 100 µM'),
  ('O=C(/C=C/c1ccc([N+](=O)[O-])cc1)c1cccc(Nc2nc(Nc3ccccc3)nc(Nc3ccccc3)n2)c1', '2.18 µM'),
  ('O=C(C=C=Nc1ccccc1)C(=O)N=C=Cc1ccccc1', '1.63 µM'),
  ('Nc1nc(N)c2c(n1)NC(c1sc(Cl)nc1Cl)CC(c1ccc3c(c1)OCO3)=N2 (stereo not drawn)', '4.52 µM');
